System: B. tabaci antennae
test-summary: Electroantennography (EAG)
Design: species or system Bemisia tabaci
condition-info: responses of B. tabaci antennae
Below, each entry is listed alongside its reported antennal response.
Your answer is read as mV, so omit the unit and give the number.

CC1=CCC(C(C)C)=CC1 ... 1.9

Query (compound): `CC(C)=CCC[C@H](C)c1ccc(C)cc1` ; field requested: antennal response
2.7

Query (compound): `CC(C)=CCC[C@H](C)[C@@H]1C=CC(C)=CC1` ; field requested: antennal response
2.1

Query (compound): CC(C)=CCC[C@@H](C)[C@@H]1C=CC(C)=CC1 [7-epi-zingiberene] ; field requested: antennal response
2.3

Query (compound): `Cc1ccc(C(C)C)cc1` ; field requested: antennal response
2.4

Values were extracted from patent US9332753B2.
